target: MAGI1_6, Q96QZ7; test: holdup assay; parameters: key: below the threshold = too weak to quantify, mostly under pKd 3.1 to 4; conditions: plain residues with an end cap or a label only (N-terminal biotin on a linker: ttds)
Sequence (Q96QZ7 1146-1238): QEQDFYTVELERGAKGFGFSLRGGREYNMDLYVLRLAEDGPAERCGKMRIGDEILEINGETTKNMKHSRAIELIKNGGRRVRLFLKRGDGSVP

>  <BINDER>
SVWLRKETRV [CYSLTR2, Q9NS75]

>  <pKd>
below the threshold

$$$$
>  <BINDER>
PKTPPTDTSV [KIR3DL3, Q8N743]

>  <pKd>
4.22

$$$$
>  <BINDER>
STLTIFETAL [ABCC4, O15439]

>  <pKd>
4.22

$$$$
>  <BINDER>
SRPQRTQTQV [HPV67-E6, A4U7F2]

>  <pKd>
below the threshold

$$$$
>  <BINDER>
QSARYRDTEL [TJP2, Q9UDY2]

>  <pKd>
4.71

$$$$
>  <BINDER>
SSRTRRETQL [HPV16-E6, P03126]

>  <pKd>
below the threshold

$$$$
>  <BINDER>
RSLEEEESQL [GRASP, Q7Z6J2]

>  <pKd>
below the threshold

$$$$
